Where do these numbers come from? They come from patent US6444617B1.

test system: wheat; test: Test Example 4: phytotoxicity to upland crop plants, treatment after emergence; format: in vivo; conditions: dosage 5 kg/ha, sprayed after emergence, judged 14 days after treatment
Can you tell me Phytotoxicity Wh for the items I'm about to list?

Entry CCNC(=O)c1nc2occc2cc1C(=O)Nc1c(CC)ccc(Cl)c1CC [compound 774] has what Phytotoxicity Wh?
5 (Crop-killing rate is 100%.)

Entry CCNC(=O)c1nc2c(cnn2C)cc1C(=O)Nc1c(CC)ccc(Cl)c1CC [compound 1087] has what Phytotoxicity Wh?
5 (Crop-killing rate is 100%.)

Entry CCCNC(=O)c1nc2cc3c(cc2cc1C(=O)Nc1c(CC)ccc(Cl)c1CC)OCO3 [compound 334] has what Phytotoxicity Wh?
2 (Crop-killing rate is 40-69%.)

Entry CCCNC(=O)c1nc2nn(C)cc2cc1C(=O)Nc1c(CC)ccc(Cl)c1CC [compound 1124] has what Phytotoxicity Wh?
5 (Crop-killing rate is 100%.)

Entry CCNC(=O)c1nc2ccsc2cc1C(=O)Nc1c(CC)ccc(Cl)c1CC [compound 870] has what Phytotoxicity Wh?
4 (Crop-killing rate is 90-99%.)

Entry CCCNC(=O)c1nc2ocnc2cc1C(=O)Nc1c(CC)ccc(Cl)c1CC [compound 1245] has what Phytotoxicity Wh?
5 (Crop-killing rate is 100%.)

Entry CCCNC(=O)c1nc2onc(C)c2cc1C(=O)Nc1c(CC)ccc(Cl)c1CC [compound 1064] has what Phytotoxicity Wh?
5 (Crop-killing rate is 100%.)

Entry Cc1c(Cl)cccc1NC(=O)c1cc2ccsc2nc1C(=O)NC1CCCC1 [compound 811] has what Phytotoxicity Wh?
5 (Crop-killing rate is 100%.)
